System: Pisum sativum
experimental-protocol: Post-emergence herbicidal activity against Pisum sativum Zhongwan-2 (pea) assessed as growth inhibition at 450 ai g/ha after 20 days by green house test
run-conditions: Lathyrus oleraceus
Entries and their growth inhibition (GI)
State the answer as a number, implicitly in %.

Worked examples, 4 molecules total:
molecule | measured-on | value-kind | reading
COP(=O)(OC)C(C)OC(=O)COc1ccc(Cl)cc1Cl (stereo not given) [CLACYFOS] | Pisum sativum | growth inhibition (GI) | 97.5
COP(=O)(OC)C(OC(=O)COc1ccc(Cl)cc1Cl)c1ccccc1 (stereo not given) | Pisum sativum | growth inhibition (GI) | 96.5
CCOP(=O)(OCC)C(C)OC(=O)COc1ccc(Cl)cc1Cl (stereo not given) | Pisum sativum | growth inhibition (GI) | 82.5
COP(=O)(COC(=O)COc1cccc(C(F)(F)F)c1)OC | Pisum sativum | growth inhibition (GI) | 10

### Prompt Retrieve growth inhibition (GI) measured for "COP(=O)(COC(=O)COc1ccc(Cl)cc1Cl)OC" and print it.
### Response 87.5

* * *

Listed compounds paired with reported growth inhibition (GI)
Tested on: Setaria viridis
experimental-protocol: Pre-emergence herbicidal activity against Setaria viridis (green foxtail) assessed as growth inhibition at 450 ai g/ha after 20 days by green house test
Assay type: functional
Express it in %; write the number only.

compound | unit-descriptor | growth inhibition (GI)
COP(=O)(OC)C(OC(=O)COc1ccc(Cl)cc1C)c1cccc([N+](=O)[O-])c1 (stereo not given) | % | 0
CCOP(=O)(OCC)C(C)OC(=O)COc1ccc(Cl)cc1Cl (stereo not given) | % | 5.5
O=C(O)COc1ccc(Cl)cc1Cl | % | 67.5
COP(=O)(OC)C(OC(=O)COc1ccc(Cl)cc1Cl)c1ccccc1 (stereo not given) | % | 30

--- query ---
### Prompt Entry COP(=O)(OC)C(C)OC(=O)COc1ccc(Cl)cc1Cl (stereo not given) needs its growth inhibition (GI) filled in; supply it.
### Response 35

* * *

Tested on: Medicago sativa
experimental-protocol: Pre-emergence herbicidal activity against Medicago sativa (alfalfa) assessed as growth inhibition at 1500 ai g/ha after 20 days by green house test
Format: functional
value-kind: growth inhibition (GI) (%)
Express your answer in %, writing the number without its unit.

Example entries begin here.
molecule | value-kind | reading
COP(=O)(OC)C(C)OC(=O)COc1ccc(Cl)cc1Cl (stereo unspecified) [CLACYFOS] | growth inhibition (GI) | 90
COP(=O)(OC)C(OC(=O)COc1ccc(F)cc1)c1cccc([N+](=O)[O-])c1 (stereo unspecified) | growth inhibition (GI) | 75
COP(=O)(OC)C(C)OC(=O)COc1cccc(C)c1C (stereo unspecified) | growth inhibition (GI) | 75
CCC(OC(=O)COc1ccc(Cl)cc1Cl)P(=O)(OC)OC (stereo unspecified) | growth inhibition (GI) | 90
COP(=O)(OC)C(OC(=O)COc1ccc(Cl)cc1Cl)c1ccccc1 (stereo unspecified) | growth inhibition (GI) | 90
COP(=O)(OC)C(OC(=O)COc1cccc(C)c1)c1ccccc1 (stereo unspecified) | growth inhibition (GI) | 75

Alright, here's another molecule for you.
### Prompt Provide one value: measured growth inhibition (GI) of COP(=O)(OC)C(C)OC(=O)COc1ccc(C)cc1 (stereo unspecified)
### Response 75

* * *

experimental-protocol: Toxicity against Triticum aestivum Yang Mai 1 (wheat) assessed as growth inhibition at 600 ai g/ha post-emergent application measured after 20 days by green house crop selectivity test
Assay type: organism-based
run-conditions: Yang Mai 1, triticum aestivum, in vivo, read-out: GI
value-kind: inhibition at 480 h (%)
Number in %, nothing else.

### Prompt // fetch inhibition at 480 h given entry COP(=O)(OC)C(C)OC(=O)COc1ccc(Cl)cc1Cl (stereo unspecified)
### Response 0

Where do these numbers come from? They come from ChEMBL document CHEMBL3045592.
